# Tested on: downy bromegrass (Bromus tectorum)
# protocol.description: Test B preemergence, downy bromegrass
# Type: in vivo
# test.parameters: 62 g ai/ha, scale 0 to 100
# From the text: […]

compound: CC1(C)CC(S(=O)(=O)Cc2c(C(F)(F)F)nc3n(c2=O)CCO3)=NO1 [Compound 2]
Plant response rating, Bromegrass, Downy: 0
--
compound: CC1(C)CC(S(=O)(=O)Cc2c(C(F)(F)Cl)nc3n(c2=O)CCC3)=NO1 [Compound 18]
Plant response rating, Bromegrass, Downy: 0
--
compound: CC1(C)CC(S(=O)(=O)Cc2c(C(F)(F)C(F)(F)F)nc3n(c2=O)CCCC3)=NO1 [Compound 21]
Plant response rating, Bromegrass, Downy: 0
--
compound: CC1(C)CC(S(=O)(=O)Cc2c(C(F)(F)F)nc3n(c2=O)CCCC3)=NO1 [Compound 8]
Plant response rating, Bromegrass, Downy: 20
--
compound: CC1(C)CC(S(=O)(=O)Cc2c(C(F)(F)F)nc3n(c2=O)CCS3)=NO1 [Compound 6]
Plant response rating, Bromegrass, Downy: 20
--
compound: CC1(C)CC(S(=O)(=O)Cc2c(C(F)(F)C(F)(F)F)nc3n(c2=O)CCC3)=NO1 [Compound 22]
Plant response rating, Bromegrass, Downy: 0
--
compound: CC1(C)CC(S(=O)(=O)Cc2c(C(F)(F)F)nc3n(c2=O)CCC3)=NO1 [Compound 11]
Plant response rating, Bromegrass, Downy: 0
--
compound: CC1(C)CC(S(=O)(=O)Cc2c(C(F)(F)F)nc3ccsn3c2=O)=NO1 [Compound 16]
Plant response rating, Bromegrass, Downy: 0

====

# System: morningglory (Ipomoea spp.)
# protocol.description: Test A preemergence, morningglory
# Assay type: in vivo
# test.parameters: 125 g ai/ha, 0 to 100 scale (0 no effect, 100 complete control)
measured.parameter: Plant response rating, Morningglory

compound: CC1(C)CC([S+]([O-])Cc2c(C(F)(F)Cl)nc3n(c2=O)CCC3)=NO1 (centres unmarked) [Compound 17]
measured.parameter: Plant response rating, Morningglory
measured: 0
--
compound: CC1(C)CC([S+]([O-])Cc2c(C(F)(F)C(F)(F)F)nc3n(c2=O)CCCC3)=NO1 (centres unmarked) [Compound 19]
measured.parameter: Plant response rating, Morningglory
measured: 0
--
compound: CCn1c(=O)c(CS(=O)(=O)C2=NOC(C)(C)C2)nc2cccnc21 [Compound 57]
measured.parameter: Plant response rating, Morningglory
measured: 0
--
compound: Cn1c(=O)c(CS(=O)(=O)C2=NOC(C)(C)C2)c(C(F)(F)F)c2ccccc21 [Compound 1]
measured.parameter: Plant response rating, Morningglory
measured: 0
--
compound: Cn1c(=O)c(C[S+]([O-])C2=NOC(C)(C)C2)nc2ccccc21 (centres unmarked) [Compound 24]
measured.parameter: Plant response rating, Morningglory
measured: 0
--
compound: CCn1c(=O)c(C[S+]([O-])C2=NOC(C)(C)C2)nc2ccccc21 (centres unmarked) [Compound 29]
measured.parameter: Plant response rating, Morningglory
measured: 0
--
compound: CC1(C)CC(S(=O)(=O)Cc2c(C(F)(F)F)nc3n(c2=O)CCO3)=NO1 [Compound 2]
measured.parameter: Plant response rating, Morningglory
measured: 0
--
compound: CC1(C)CC([S+]([O-])Cc2c(C(F)(F)F)nc3ccon3c2=O)=NO1 (centres unmarked) [Compound 43]
measured.parameter: Plant response rating, Morningglory
measured: 0
--
compound: CC1(C)CC([S+]([O-])Cc2c(C(F)(F)Cl)nc3n(c2=O)CCCS3)=NO1 (centres unmarked) [Compound 36]
measured.parameter: Plant response rating, Morningglory
measured: 0
--
compound: CC1(C)CC(S(=O)(=O)Cc2c(C(F)(F)F)nc3ccon3c2=O)=NO1 [Compound 42]
measured.parameter: Plant response rating, Morningglory
measured: 0
--
compound: CC1(C)CC(S(=O)(=O)Cc2c(C(F)(F)F)nc3cccnn3c2=O)=NO1 [Compound 45]
measured.parameter: Plant response rating, Morningglory
measured: 0
--
compound: CC1(C)CC(S(=O)(=O)Cc2c(C(F)(F)C(F)(F)F)nc3n(c2=O)CCCO3)=NO1 [Compound 55]
measured.parameter: Plant response rating, Morningglory
measured: 0
--
compound: CC1(C)CC(S(=O)(=O)Cc2c(C(F)(F)F)nc3cnccn3c2=O)=NO1 [Compound 52]
measured.parameter: Plant response rating, Morningglory
measured: 0
--
compound: CC1(C)CC(S(=O)(=O)Cc2c(C(F)(F)F)nc3n(c2=O)CCC3)=NO1 [Compound 11]
measured.parameter: Plant response rating, Morningglory
measured: 30
--
compound: Cc1cc2nc(C(F)(F)F)c(C[S+]([O-])C3=NOC(C)(C)C3)c(=O)n2o1 (centres unmarked) [Compound 50]
measured.parameter: Plant response rating, Morningglory
measured: 0
--
compound: CC1(C)CC([S+]([O-])Cc2c(C(F)(F)F)nc3cnccn3c2=O)=NO1 (centres unmarked) [Compound 54]
measured.parameter: Plant response rating, Morningglory
measured: 0
--
compound: CCn1c(=O)c(C[S+]([O-])C2=NOC(C)(C)C2)nc2cccnc21 (centres unmarked) [Compound 38]
measured.parameter: Plant response rating, Morningglory
measured: 0
